src = patent EP0569096A1

Assay: physchem
Conditions: water
OBSERVED_PROPERTY: solubility (µg/mL)
API: value field is a number in µg/mL; no unit string.

Which solubility value belongs to CN1C[C@H]2c3ccccc3Oc3ccc(Cl)cc3[C@@H]2C1 (relative stereo) [fumarate] ?
1000
